Data provenance: patent US20240132624A1

# assay-system: T1, human FcRn/b2M (human, UniProt P61769 21-119, biotinylated)
# T1 construct: bought recombinant biotinylated protein (ACRO FCM-H82W4 or Immunitrack ITF01); also called hFcRn; hFcRn/hb2M
# T1 sequence (chain, as listed by the source limits assumed, chain 1 of 2): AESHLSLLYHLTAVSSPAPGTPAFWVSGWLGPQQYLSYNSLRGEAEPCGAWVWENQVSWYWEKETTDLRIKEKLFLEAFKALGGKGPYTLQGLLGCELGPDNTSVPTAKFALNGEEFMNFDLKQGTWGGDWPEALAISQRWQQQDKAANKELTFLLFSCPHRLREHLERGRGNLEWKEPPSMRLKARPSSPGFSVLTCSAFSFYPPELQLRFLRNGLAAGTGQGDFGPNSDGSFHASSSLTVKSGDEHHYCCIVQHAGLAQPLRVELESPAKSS
# T1 sequence (P61769 21-119 limits assumed, chain 2 of 2): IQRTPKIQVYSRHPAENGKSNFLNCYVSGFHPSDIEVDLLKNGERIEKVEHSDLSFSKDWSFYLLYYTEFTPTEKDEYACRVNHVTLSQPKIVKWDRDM
# test-summary: SPR off-rate pH 6.0
property-name: binding result

Recorded results for 4 binders are shown here.
{"binder": "T026301058 (VHH, name in Kabat numbering, tagless) VHH: EVQLVESGGGVVQPGGSLRLSCAASTFTFSEYAMYWVRQAPGKGLEWVSAISQGGGSTDYADSVKGRFTISRDNSKNTLYLQMNSLRPEDTALYYCAADTLYTDLTKYSYWGQGTLVTVSS", "binding result": "no binding"}
{"binder": "T026301115 (VHH, name in Kabat numbering, tagless) VHH: EVQLVESGGGVVQPGGSLRLSCAASTFTFSSYDMYWVRQAPGKGLEWVSAISSGGGSTDYADSVKGRFTISRDNSKNTLYLQMNSLRPEDTALYYCAADTLYTDLTKYSYWGQGTLVTVSS", "binding result": "no binding"}
{"binder": "T026301104 (VHH, name in Kabat numbering, tagless) VHH: EVQLVESGGGVVQPGGSLRLSCAASGFTFSEYAMYWVRQAPGKGLEWVSAISQGGGSTDYADSVKGRFTISRDNSKNTLYLQMNSLRPEDTALYYCAADTLYTDLTKYSYWGQGTLVTVSS", "binding result": "no binding"}
{"binder": "T026301092 (VHH, name in Kabat numbering, tagless) VHH: EVQLVESGGGVVQPGGSLRLSCAASGFTFSSYDMYWVRQAPGKGLEWVSAISSGGGSTDYADSVKGRFTISRDNSKNTLYLQMNSLRPEDTALYYCAADTLYTDLTKYSYWGQGTLVTVSS", "binding result": "no binding"}

Then this binder:
Any idea what its binding result is? The binder is T026301056 (VHH, name in Kabat numbering, tagless) VHH: EVQLVESGGGVVQPGGSLRLSCAASTFTFSEYDMYWVRQAPGKGLEWVSAISQGGGSTDYADSVKGRFTISRDNSKNTLYLQMNSLRPEDTALYYCAADTLYTDLTKYSYWGQGTLVTVSS no binding
